src = the supplement of paper PMC10567573

Measured protein stability index by item
- protocolNotes: protein stability index of a GFP-peptide fusion (GPS, HEK-293T) (PSI 1-6); higher = more stable;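 further: 24-mer peptide tiles fused after GFP, lentivirally expressed, FACS-sorted into six equal bins by GFP/DsRed ratio, decoded by Illumina sequencing, PSI is the read-weighted mean bin number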
- conditionContext: treatment: MLN4924 1 uM, 8 h; c terminus: a fixed tail appended
quantityKind: protein stability index

> print(dat)
                       sequenceinput  experimentalvalue
1   YSFVLTNRGNSAGGLQHRVTAKTA [PTPRD]               2.97
2  LPSLGLPQYRSYFMECLVDARMLD [PPFIA4]               2.13
3   MLYEKQKQQNVAHCMLVSNRVSWW [ZBED1]               2.31
